- experimental-system: recombinant human IDE42-1019 (Homo sapiens)
- Construct: recombinant human IDE42-1019 (R&D Systems); purchased R&D Systems
- assay-details: Protease assay with fluorogenic peptide substrate Mca-[…](Dnp)-OH
- Type: biochemical
- test-context: fluorogenic peptide Mca-RPPGFSAFK(Dnp)-OH; apparent IC50 for compounds with submaximal inhibition; read-out: IC50 (μM) Proteolysis
- Protocol: The proteases IDE42-1019, recombinant human IDE42-1019 (R&D Systems), neprilysin (R&D), and angiotensin-converting enzyme (R&D) were assayed using the fluorophore/quencher-tagged peptide substrate Mca-[…](Dnp)-OH (SEQ ID NO: 24) (R&D) according to the manufacturer's instructions and using the recommended buffers (fluorophore Mca=(7-methoxycourmarin-4-yl)acetyl and quencher Dnp=2,4-dinitrophenyl). For IDE the recommended buffer is 50 mM Tris pH 7.5, 1 M NaCl. […]
measured-endpoint: IC50 (µM)

P = Cc1ccc(-c2ccc([C@@H]3[C@@H](CO)N4CCCCN(S(=O)(=O)c5ccccc5C)C[C@@H]34)cc2)cc1C
Q = Cc1c(F)ccc(-c2ccc([C@@H]3[C@@H](CO)N4CCCCN(S(=O)(=O)c5ccccc5C(F)(F)F)C[C@@H]34)cc2)c1C
R = Cc1cccc(-c2ccc(C3CCN(C(=O)c4ccc5ccccc5n4)CC3)cc2)c1C
S = Cc1ccccc1S(=O)(=O)N1CCCCN2[C@H](CO)[C@@H](c3ccc(-c4cccc(F)c4C)cc3)[C@@H]2C1
T = Cc1cccc(-c2ccc(C3CCN(C(=O)Oc4ccc5ccccc5c4)CC3)cc2)c1C
Inquiry: Please put the 5 compounds above in a list ordered by falling IC50. Answer by listing the labels in the requested order.
Reply text: T, R, P, S, Q
(T: 12 µM, R: 1 µM, P: 0.2 µM, S: 0.1 µM, Q: 0.03 µM)

* * *

- experimental-system: recombinant human IDE42-1019 (Homo sapiens)
- Construct: recombinant human IDE42-1019 (R&D Systems); purchased R&D Systems
- assay-details: Protease assay with fluorogenic peptide substrate Mca-[…](Dnp)-OH
- Format: biochemical
- test-context: fluorogenic peptide Mca-RPPGFSAFK(Dnp)-OH; plateau at high inhibitor concentration; read-out: Imax (%) Proteolysis (inhibition maximum)
measured-endpoint: Emax (%)

| compound | experimental-system | measured-endpoint | unit-descriptor | measured |
| --- | --- | --- | --- | --- |
| Cc1ccccc1-c1ccc([C@@H]2[C@@H](CO)N3CCCCN(S(C)(=O)=O)C[C@@H]23)cc1 [compound 591] | recombinant human IDE42-1019 (Homo sapiens) | Emax | % | 40 |

I = Cc1ccccc1S(=O)(=O)N1CCCCN2[C@H](CO)[C@@H](c3ccc(-c4ccc5c(c4)OCO5)cc3)[C@@H]2C1 [B4]
II = Cc1ccc(C)c(-c2ccc([C@H]3C4CN(S(=O)(=O)c5ccccc5C)CCCCN4[C@@H]3CO)cc2)c1 (stereo partly drawn) [K13]
Inquiry: Could you determine which record has the numerically smaller Emax? Candidates: I and II Answer = label.
Reply text: II
(II: 65%, I: 100%)

* * *

- experimental-system: recombinant human IDE42-1019 (Homo sapiens, UniProt P14735)
- Construct: recombinant human IDE42-1019 (R&D Systems); purchased R&D Systems
- Sequence (P14735 42-1019): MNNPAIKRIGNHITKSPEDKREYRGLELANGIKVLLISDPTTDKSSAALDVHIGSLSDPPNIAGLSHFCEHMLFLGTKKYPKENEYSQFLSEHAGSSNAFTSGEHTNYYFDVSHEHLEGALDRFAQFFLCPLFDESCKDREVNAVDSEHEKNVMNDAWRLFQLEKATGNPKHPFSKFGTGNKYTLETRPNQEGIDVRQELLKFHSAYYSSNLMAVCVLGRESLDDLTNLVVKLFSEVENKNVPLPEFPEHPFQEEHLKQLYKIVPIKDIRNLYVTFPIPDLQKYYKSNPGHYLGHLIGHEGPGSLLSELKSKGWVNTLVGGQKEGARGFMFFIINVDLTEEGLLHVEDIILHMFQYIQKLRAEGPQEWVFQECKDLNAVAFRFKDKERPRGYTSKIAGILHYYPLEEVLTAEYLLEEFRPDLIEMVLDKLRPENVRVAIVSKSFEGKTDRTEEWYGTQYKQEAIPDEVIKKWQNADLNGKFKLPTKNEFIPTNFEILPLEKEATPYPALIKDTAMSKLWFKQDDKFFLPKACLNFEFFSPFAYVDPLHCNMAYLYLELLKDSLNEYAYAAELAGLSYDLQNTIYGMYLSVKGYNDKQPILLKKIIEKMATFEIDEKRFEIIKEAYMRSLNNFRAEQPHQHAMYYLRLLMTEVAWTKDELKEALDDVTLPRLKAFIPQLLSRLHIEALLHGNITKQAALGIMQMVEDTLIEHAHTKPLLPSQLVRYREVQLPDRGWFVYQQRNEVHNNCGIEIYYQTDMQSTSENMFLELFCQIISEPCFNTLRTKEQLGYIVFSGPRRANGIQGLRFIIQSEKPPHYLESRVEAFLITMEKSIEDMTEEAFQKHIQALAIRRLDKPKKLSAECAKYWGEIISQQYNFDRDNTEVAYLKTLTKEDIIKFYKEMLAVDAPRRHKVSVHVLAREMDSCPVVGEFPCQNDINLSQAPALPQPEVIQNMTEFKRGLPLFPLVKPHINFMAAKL
- assay-details: Protease assay with fluorogenic peptide substrate Mca-[…](Dnp)-OH
- Format: biochemical
- test-context: fluorogenic peptide Mca-RPPGFSAFK(Dnp)-OH; apparent IC50 for compounds with submaximal inhibition; read-out: IC50 (μM) Proteolysis
measured-endpoint: IC50 (µM)

Record excerpt, results attached:
| compound | IC50 / µM |
| --- | --- |
| O=C(c1ccncc1)N1CC2NC(C1)C2c1ccc(/C=C/c2ccccc2)cc1 (stereo not shown) | 10 |
| Cc1cccc(-c2ccc([C@@H]3[C@@H](CO)N4CCCCN(S(=O)(=O)c5cn(C)cn5)C[C@@H]34)cc2)c1 | 0.6 |
| CCCn1nccc1S(=O)(=O)N1C/C=C\CN2C(C1)[C@H](c1ccc(-c3cccc(C)c3C)cc1)[C@H]2CO (stereo partly shown) | 0.03 |

a = Cc1cccc(-c2ccc(C3CCN(C(=O)c4ccc5c(c4)C4(OC5=O)c5ccc(O)cc5Oc5cc(O)ccc54)CC3)cc2)c1C
b = Cc1cccc(-c2ccc([C@H]3C4CN(S(=O)(=O)c5cn(C)nc5C(F)(F)F)C/C=C\CN4[C@@H]3CO)cc2)c1C (stereo partly shown)
c = Cc1cc(C)cc(-c2ccc([C@@H]3[C@@H](CO)N4CCCCN(S(=O)(=O)c5ccccc5C)C[C@@H]34)cc2)c1
Inquiry: Descending sort on IC50 required. Answer by listing the labels in the requested order.
Reply text: a, c, b

Data provenance: patent US11040976B2
